test system: CCRF-CEM; assay: NCI tumour cell line growth inhibition, 48 h
Activity calls are given as the source filed them. Cut-off read from the data, not from the text of the source: active = GI50 up to about 1.1 µM and inactive = higher.
Would you kindly list GI50 for each of these molecules?

Solved cases below.
CC1(C)Oc2ccc(NC(=O)CCC(N)C(=O)O)cc2O1 (stereo not given); > 100 µM (inactive)
CCOc1cc2c(cc1OC(C)=O)C(=O)CC[C@H]1C3CC[C@H](OC(C)=O)[C@@]3(C)CC[C@H]21 (stereo not given in full); > 100 µM (inactive)
Cc1ccc([S+]([O-])c2cccs2)cc1 (stereo not given); > 100 µM (inactive)
N#Cc1c(Cl)c2cccnc2n2c1nc1ccccc12; 0.9 µM (active)
CCOC(=O)[C@@H]1ON2O[C@H](OC3CCCC3(c3ccccc3)c3ccccc3)C[C@H]3OC(=O)[C@@H]1C32 (stereo not given in full); 26.3 µM (inactive)
CC1(C)C2CCC1(C)C(NC(=O)COCCOCC(N)=O)C2 (stereo not given); > 100 µM (inactive)
CNC1=Nc2ccc(Cl)cc2C(OP(=O)(N2CCOCC2)N2CCOCC2)=NC1; > 100 µM (inactive)
COc1cc(S(=O)(=O)Nc2ccc(-c3csc(N4C(=O)C(C)SC4c4ccccc4)n3)cc2)ccc1Cl (stereo not given); 40 µM (inactive)
Cc1ccc(C(=O)N/N=C(\N=N\c2ccc([N+](=O)[O-])cc2)c2ccc(N(CCC#N)CCC#N)cc2C)cc1; 39.8 µM (inactive)

Turning now to a further record.
Form field: reported GI50 of S=C(NCCCCCCNC(=S)Nc1c2ccccc2nc2ccccc12)Nc1c2ccccc2nc2ccccc12
63 µM (inactive)

###

tested on: NCI/ADR-RES; assay: NCI tumour cell line growth inhibition, 48 h
The source made the active and inactive calls. No stated cut-off is given here; in the data, active = GI50 up to about 1.1 µM and inactive = higher.
Your response should consist of one outcome taken from true = active, false = inactive

Short answer needed: outcome of this test for Cc1ccc(C(=O)N/N=C(\N=N\c2ccc([N+](=O)[O-])cc2)c2ccc(N(CCC#N)CCC#N)cc2C)cc1 ?
false

Short answer needed: outcome of this test for CCCCCCOc1ccc(C(=O)NOC)cc1 ?
false

Short answer needed: outcome of this test for C=C1C(=O)OC2CC(C)C3CC(O)OC(OCC)C3(C)CC12 (stereo not given) ?
false

Short answer needed: outcome of this test for COc1ccc(-n2c(=O)[nH]n(C(C)=O)c2=O)cc1 ?
false

Short answer needed: outcome of this test for COC(CN(C)C(=O)C(C)NC(=O)c1ccccc1)OC (stereo not given) ?
false

###

Would you kindly list GI50 for each of these molecules?
tested on: LOX IMVI; experiment: NCI tumour cell line growth inhibition, 48 h
Activity calls are given as the source filed them. Cut-off read from the data, not from the text of the source: active = GI50 up to about 1.1 µM and inactive = higher.

Solved cases below.
O=c1c(F)cn2c(=O)n1CCCCCCCn1c(=O)c(F)cn(c1=O)CCCCCCC2; > 100 µM (inactive)
CN(CCCNC(=O)c1cn(C)c2c1ccc1ccccc12)CCCNC(=O)c1cn(C)c2c1ccc1ccccc12; 1.82 µM (inactive)
O=c1oc2ccccc2n1CCN1CCCCC1; > 100 µM (inactive)
OCC1OC(c2n[nH]c3c(O)ncnc23)C(O)C1O (stereo unspecified); 3.92 µM (inactive)
C[N+](C)([O-])CCCNc1c2ccccc2nc2cccc([N+](=O)[O-])c12; 0.51 µM (active)
Cn1cc(-c2ccc(CCOC3CCCCO3)cc2)c2c(C#N)cccc21 (stereo unspecified); 41.9 µM (inactive)
O=C([C@H](O)[C@@H](O)c1ccc(Br)cc1)C12CC3CC(CC(C3)C1)C2; 31.1 µM (inactive)
O=C(/C=C/c1ccc(Cl)c(Cl)c1)CCN1CCN(CCC(=O)/C=C/c2ccc(Cl)c(Cl)c2)CC1; 13 µM (inactive)
CCC(=O)c1cc(C(=O)C(=S)SC)cc(C(=O)C(=S)SC)c1; 4.19 µM (inactive)
C=C(Cl)C(Cl)(CBr)CCC(Br)C(C)(C)Br (stereo unspecified); 15.3 µM (inactive)

Form field: reported GI50 of Cc1[nH]c(C)c(CN(C)C)c1CN(C)C
> 100 µM (inactive)

###

system: PC-3; experiment: NCI tumour cell line growth inhibition, 48 h
Active and inactive are the calls of the source. Rule as the data show it: active = GI50 up to about 1.1 µM and inactive = higher.
Your response should consist of one outcome taken from T for active, F for inactive

CCC(/C=C/c1ccccc1)=N\Nc1ccc(Cl)c(Cl)c1; F
COc1ccc(/C=C\c2cc(OC)c(OC)c(OC)c2)cc1OC(=O)CCC(=O)O; T
COC(NC(=O)Nc1ccccc1C)(C(F)(F)F)C(F)(F)F; F
Nc1nc2ncc(SCc3ccc(C(=O)NC(CCC(=O)O)C(=O)O)cc3)cc2c(=O)[nH]1 (centres undefined); F
CNc1ncccc1Nc1cc(=O)n2c3cccnc3n(C)c2c1; F

Short answer needed: outcome of this test for CCOC(=O)c1sc2nc(SC)nc(Nc3ccc(OC)c(OC)c3)c2c1N ?
F

Short answer needed: outcome of this test for N[C@H]1CCc2c1nc1c(c2-c2ccccc2)CC[C@@H]1N ?
F

Short answer needed: outcome of this test for O=S(=O)(c1ccccc1)[C@@H]1[C@H]2C=C[C@](CS)(O2)[C@H]1S(=O)(=O)c1ccccc1 ?
F

Short answer needed: outcome of this test for O=c1[nH]c(C23CC4CC(CC(C4)C2)C3)cc2c1c(=O)oc1ccccc12 ?
F

###

tested on: MOLT-4; test: NCI tumour cell line growth inhibition, 48 h
The source made the active and inactive calls. Rule as the data show it: active = GI50 up to about 1.1 µM and inactive = higher.
Would you kindly list GI50 for each of these compounds?

Solved cases below.
COc1c(O)cc2oc(-c3ccc(O)cc3)cc(=O)c2c1O [HISPIDULIN]; 25.4 µM (inactive)
CCC(=O)c1c(NOC2OC(COC(C)=O)C(OC(C)=O)C(OC(C)=O)C2OC(C)=O)nc(OC)n(C)c1=O (centres undefined); > 100 µM (inactive)
Cc1ccsc1/C=N/Nc1ncccn1; > 100 µM (inactive)

Turning now to a further record.
Form field: reported GI50 of O=C1O[C@@H](c2ccccc2)C[C@H]1CN1CCOCC1
33 µM (inactive)

###

Would you kindly list GI50 for each of these molecules?
system: HOP-62; test: NCI tumour cell line growth inhibition, 48 h
Active and inactive are the calls of the source. Cut-off read from the data, not from the text of the source: active = GI50 up to about 1.1 µM and inactive = higher.

Solved cases below.
O=C(c1ccccc1)N1C(=S)NC(=N/c2ccccc2)/C1=N\c1ccccc1; > 100 µM (inactive)
COc1ccc(C2=NNC(=O)c3ccccc3N2c2nc(-c3cccs3)nc3cc(OC)c(OC)cc23)cc1; 3.13 µM (inactive)
CC(C)=CCC\C(C)=C/C=C/C(C)=C\C=C\C(C)=C/C=C/C=C(C)\C=C\C=C(C)/C=C/C=C(/C)CCC=C(C)C; > 100 µM (inactive)
c1ccc2cc3c(cc2c1)OP1(Oc2cccc4cccnc24)(O3)Oc2cc3ccccc3cc2O1; 21 µM (inactive)
C=C(C)[C@@]1(OC(=O)c2cc([N+](=O)[O-])cc([N+](=O)[O-])c2)C[C@@H]2CCCC[C@@H]21; 62.4 µM (inactive)
COc1ccc2c(c1)CCc1c(-c3n[nH]c4c3CCc3cc(OC)ccc3-4)n[nH]c1-2; 24 µM (inactive)
C#CN1C(=O)c2c(c(-c3ccccc3)c(-c3ccc(Oc4ccc(-c5c(-c6ccccc6)c6c(c(-c7ccccc7)c5-c5ccccc5)C(=O)N(C#C)C6=O)cc4)cc3)c(-c3ccccc3)c2-c2ccccc2)C1=O; > 100 µM (inactive)
Nc1ccc2nc3n(c(=O)c2c1)CCCCC3; > 100 µM (inactive)
O=C(/C=C/c1ccc(OCCCCCCCCCCOc2ccc(/C=C/C(=O)c3ccc(Cl)cc3)cc2)cc1)c1ccc(Cl)cc1; > 100 µM (inactive)
CC1(C)C(=O)N(c2ccccc2)C(=O)N1c1nc2ccccc2[nH]1; > 100 µM (inactive)

List reported GI50 for each of these molecules:
1. O=C1C2C(C(=O)N1O)N(Cc1ccccc1)C(=O)N2Cc1ccccc1 (centres undefined)
2. COC(=O)C(NC(=O)c1ccccc1)c1ccco1 (centres undefined)
3. CCCCCCCCCCCC(=O)OC[C@@H](C[As](=O)(O)O)OC(=O)CCCCCCCCCCC
4. [N-]=[N+]=Nc1ncnc2c1sc(=S)n2-c1ccccc1
5. C#CCC(N)(CO)C(=O)O (centres undefined)
6. CC1(C)C(C#N)=[N+]([O-])C(C)(C)N1O

1. > 100 µM (inactive)
2. > 100 µM (inactive)
3. 9.95 µM (inactive)
4. 21.6 µM (inactive)
5. > 100 µM (inactive)
6. > 100 µM (inactive)

List reported GI50 for each of these molecules:
1. COc1cc(C=O)c(-c2cc3c(cc2C2(C)OCCS2)OCO3)c(OC)c1OC (centres undefined)
2. CN1CCc2cc(N)cc3c2C1Cc1ccc(O)c(O)c1-3 (centres undefined)
3. Cn1cc(-c2ccc(CCOC3CCCCO3)cc2)c2c(C#N)cccc21 (centres undefined)

15.5 µM (inactive)
49.3 µM (inactive)
> 100 µM (inactive)

###

tested on: HCT-15
In plain terms, low GI50, meaning strictly below 20 µM, gives label 1, and everything else gives label 0.

Past entries and their recorded results:
COc1c(O)cc2oc(-c3ccc(O)cc3)cc(=O)c2c1O; label 0
Clc1ccc(/C=N/c2ccc(Oc3ccc(Cl)cc3)c(Cl)c2)cc1; label 0
COc1ccc(C2=C(Cl)C(=O)N(c3ccc(OC)cc3OC)C(=O)C2(Cl)Cl)cc1; label 1
CCOC(=O)[C@@H]1ON2O[C@H](OC3CCCC3(c3ccccc3)c3ccccc3)C[C@H]3OC(=O)[C@@H]1C32 (stereo not given in full); label 0

Could you now consider this next molecule?
Determine whether this molecule shows GI50 lower than 20 µM (ties excluded): [N-]=[N+]=C1C(=O)c2ccccc2-c2ccccc21
label 0
